Reference source: PubChem BioAssay (NCI)

System: PC-3 prostate
Measurement description: NCI-60 one-dose screen, 48 h (100 = growth as untreated, 0 = no growth, -100 = all killed)
Measurement context: 10 µM unless noted
This is part of a sample that, as a whole, favours compounds with a hit. Of some 83,000 tested, about 20% had one in any assay.
Note to self: class labels come from recorded growth, ranges listed here: low class = under 60%, middle class = from 60% up to 80%, high class = 80% and over

{"columns": ["Record smiles", "System", "Class name"],
 "data": [
  ["COc1cc(C(=O)NNC(=O)c2ccccc2O)cc(OC)c1OC", "PC-3 prostate", "middle class"],
  ["O=S1(=O)N(CCNc2nccc(-c3c(-c4cccc(O)c4)nc4sccn34)n2)CCN1Cc1ccccc1", "PC-3 prostate", "middle class"],
  ["C#C[C@@]1(O)[C@@H](CO)O[C@@H](n2cc(Br)c3c(Cl)ccnc32)[C@@H]1O", "PC-3 prostate", "low class"],
  ["S=c1ssnc1-c1ccccn1", "PC-3 prostate", "low class"],
  ["C[C@]12CC[C@@H]3c4ccc(O)c(N)c4CC[C@H]3[C@@H]1CC[C@@H]2O", "PC-3 prostate", "high class"],
  ["C=C1C(=O)O[C@H]2[C@H]1CC/C(COC(=O)OC/C1=C/CC[C@@]3(C)O[C@H]3[C@H]3OC(=O)[C@@H](CN(C)C)[C@@H]3CC1)=C\\CC[C@@]1(C)O[C@@H]21", "PC-3 prostate", "middle class"]
]}

====

The following compounds are shown together with reported growth values.
Tested on: RPMI-8226 leukemia
Measurement description: NCI-60 one-dose screen, 48 h (100 = growth as untreated, 0 = no growth, -100 = all killed)
Measurement context: 10 µM unless noted
The panel holds about 83,000 compounds, 20% with a hit somewhere; the sample as a whole holds those more often. Calls of active or inactive are those of the source. Rule for the calls: active = growth percent below 10; inactive = the rest.
Measured metric: growth

{"columns": ["Compound", "System", "Measured metric", "Experimental result"],
 "data": [
  ["Cc1ccc2oc(=O)cc(C3C(C#N)=C(N)Oc4c3ccc3ccccc43)c2c1 (stereo not drawn)", "RPMI-8226 leukemia", "growth", "70.2% (inactive)"],
  ["CCOC(=O)C(C)(CSSCC(C)(NC(=O)c1ccc2ccccc2c1)C(=O)OCC)NC(=O)c1ccc2ccccc2c1 (stereo not drawn)", "RPMI-8226 leukemia", "growth", "93.4% (inactive)"],
  ["Cc1ccc2c(c1)Nc1ccc(C)cc1C2(C)C", "RPMI-8226 leukemia", "growth", "85.4% (inactive)"],
  ["CCCC(=O)Oc1ccc(/C(=C(\\C)c2ccc(Cl)cc2)c2ccc(OCCN(CC)CC)cc2)cc1", "RPMI-8226 leukemia", "growth", "-49.5% (active)"],
  ["CCOC(=O)c1noc2c1CCc1cn(Cc3cc(OC)cc(OC)c3)cc1-2", "RPMI-8226 leukemia", "growth", "99.9% (inactive)"],
  ["CC(C)[C@@H]1NC(=O)[C@]2(C)CSC(=N2)c2ccnc(c2)CNC(=O)C[C@@H](/C=C/CCS)OC1=O", "RPMI-8226 leukemia", "growth", "-18.5% (active)"],
  ["O=c1c2ccccc2[nH]n1Cc1ccc2c(c1)OCO2", "RPMI-8226 leukemia", "growth", "90.5% (inactive)"],
  ["O=C1C(Cl)=C(Nc2ccccc2)C(=O)C(Cl)=C1Nc1ccccc1", "RPMI-8226 leukemia", "growth", "107% (inactive)"],
  ["Nc1ncc(-c2ccc3ncnc(Nc4cncc(Cl)c4)c3c2)cn1", "RPMI-8226 leukemia", "growth", "50.1% (inactive)"],
  ["CCn1cc(C(=O)O)c(=O)c2cc(F)c(N3CCN(CC(=O)Nc4ccc(C(C)=O)cc4)CC3)cc21", "RPMI-8226 leukemia", "growth", "106% (inactive)"],
  ["COC(=O)c1ccc2c(c1)Oc1ccc(Cl)cc1-c1cc(C)nn1-2", "RPMI-8226 leukemia", "growth", "74.9% (inactive)"],
  ["O=C(Nc1ccc(-n2ccc3c(NC(=O)c4ccccc4)ncnc32)cc1)Nc1ccc(Cl)c(Cl)c1", "RPMI-8226 leukemia", "growth", "-1.3% (active)"],
  ["CC1(C)CC(=O)C2=C(C1)OC1=C(C(=O)CC(C)(C)C1)C2c1ccc(OCc2cn(-c3ccc(F)cc3F)nn2)cc1", "RPMI-8226 leukemia", "growth", "92.7% (inactive)"],
  ["COc1cc2c(/C=C3/C(=O)Nc4ccc(O)cc43)c(Cl)n(Cc3cc(OC)c(OC)c(OC)c3)c2cc1C", "RPMI-8226 leukemia", "growth", "-22.9% (active)"],
  ["CC(=O)c1ccc2c(c1)C1C=CCC1[C@H](c1cc3c(cc1Br)OCO3)N2 (stereo partly drawn)", "RPMI-8226 leukemia", "growth", "9.1% (active)"],
  ["COc1cc(C(=O)N2CCN(C(=O)c3cc(OC)c(OCc4ccccc4)cc3N)CC2)c(N)cc1OCc1ccccc1", "RPMI-8226 leukemia", "growth", "179% (inactive)"],
  ["COc1cc(-c2nc(N)n(CC(=O)Nc3ccc(/C(C)=N\\O)cc3)n2)cc(OC)c1OC", "RPMI-8226 leukemia", "growth", "94.3% (inactive)"],
  ["CCC1S/C(=N\\N=C(/C)c2ccco2)N(c2ccccc2)C1=O (stereo not drawn)", "RPMI-8226 leukemia", "growth", "60.4% (inactive)"],
  ["C=CC(=O)Nc1cccc(Nc2nc(Nc3ccc(OCCOC(F)F)cc3)ncc2F)c1", "RPMI-8226 leukemia", "growth", "42.1% (inactive)"],
  ["COc1ccc(-c2cnc(-c3ccc(F)cc3)[nH]2)cc1", "RPMI-8226 leukemia", "growth", "44.5% (inactive)"],
  ["Cc1cc[n+](CCCC[n+]2ccc(C)cc2)cc1", "RPMI-8226 leukemia", "growth", "94.2% (inactive)"],
  ["COc1cccc(-c2nc3sccn3c2-c2ccnc(NCCNC(=O)Nc3cccc(C(F)(F)F)c3)n2)c1", "RPMI-8226 leukemia", "growth", "20.4% (inactive)"],
  ["COc1ccc(Cl)cc1NC(=O)c1cc2c([nH]1)-c1nc(N)sc1CCC2", "RPMI-8226 leukemia", "growth", "108% (inactive)"],
  ["COc1ccc(-c2cc3ccc(N(C)C)cc3nc2N)c(F)c1", "RPMI-8226 leukemia", "growth", "-19.7% (active)"],
  ["O[C@@H]1CCO[C@H](c2ccc3ccccc3c2)C1", "RPMI-8226 leukemia", "growth", "96.4% (inactive)"],
  ["CC(=O)O[C@@H]1[C@@H](OC(C)=O)[C@H](OC(C)=O)CO[C@H]1Nc1cccc2ccccc12", "RPMI-8226 leukemia", "growth", "87.9% (inactive)"],
  ["CCn1c(SC)nnc1-c1cc2c([nH]c3ccccc32)c(-c2cccc(O)c2)n1", "RPMI-8226 leukemia", "growth", "30.1% (inactive)"],
  ["O=C(Nc1ccc(-n2ccc3c(NC(=O)c4ccccc4)nccc32)cc1)Nc1ccc(Cl)c(Cl)c1", "RPMI-8226 leukemia", "growth", "-49.6% (active)"]
]}

====

Test system: MALME-3M melanoma
Measurement description: NCI-60 one-dose screen, 48 h (100 = growth as untreated, 0 = no growth, -100 = all killed)
Measurement context: 10 µM unless noted
The panel holds about 83,000 compounds, 20% with a hit somewhere; the sample as a whole holds those more often.
Measured metric: growth (%)

{"columns": ["Record smiles", "Measured metric", "Experimental result"],
 "data": [
  ["O=C(Nc1ccc(F)cc1)Nc1ccc(Cl)c([N+](=O)[O-])c1", "growth", 27.4],
  ["COc1ccc(CNc2nc3ccccc3c3c(=O)c4ccccc4sc23)cc1OC", "growth", 66.6],
  ["COc1ccc(-c2nn(-c3cccc(Cl)c3)cc2-c2cc(-c3ccc(Br)cc3)[nH]c(=O)c2C#N)cc1", "growth", 69.1],
  ["O=C1COc2ccccc2C(=O)N1CCCCN1CCCCC1", "growth", 93.8],
  ["Cc1ccc(N(CC2=NCCN2)c2cccc(O)c2)cc1", "growth", 90.4],
  ["COc1cc(/C=C/C(=O)N2CCC=CC2=O)cc(OC)c1OC", "growth", 10.5],
  ["CCCC(=O)Oc1ccc(/C(=C(\\C)c2ccc(OC)cc2)c2ccc(OCCN3CCCCC3)cc2)cc1", "growth", 61.9],
  ["Cc1c(Cl)ccc2c(C(=O)Cl)cc(-c3ccccc3)nc12", "growth", 104],
  ["ClC1c2ccccc2CCc2ccccc21", "growth", 90.6]
]}

====

Test system: EKVX NSCLC
Measurement description: NCI-60 one-dose screen, 48 h (100 = growth as untreated, 0 = no growth, -100 = all killed)
Measurement context: 10 µM unless noted
The panel holds about 83,000 compounds, 20% with a hit somewhere; the sample as a whole holds those more often.
Measured metric: growth (%)

{"columns": ["Molecule", "Measured metric", "Experimental result"],
 "data": [
  ["N#Cc1c2c(c(N)[nH]c1=O)C(=O)NC2(O)c1ccccc1 (centres undefined)", "growth", 98.1],
  ["O=C1c2ccccc2C(=O)c2c(NCCN=Cc3c(O)ccc4ccccc34)cccc21", "growth", 73.3],
  ["Clc1ccc2c(NCCNc3nc(Cl)nc4ccccc34)ccnc2c1", "growth", -9.06],
  ["CC(C)CCC[C@@H](C)[C@H]1CC[C@H]2[C@@H]3CC=C4N(c5ccccc5)C(=O)CC[C@]4(C)[C@H]3CC[C@]12C", "growth", 96.7],
  ["COC(=O)c1oc2c(C(C)=O)c(OCCCN(C)C)ccc2c1C", "growth", 187],
  ["C=CC(=O)Nc1cccc(Nc2nc(Nc3ccc(OCCOC(F)F)cc3)ncc2F)c1", "growth", 67.6],
  ["O=C(N/N=C/c1ccccc1O)c1ccccc1O", "growth", 37.5],
  ["CC(C(=O)O)N1C(N)=NNC1c1ccccc1O (centres undefined)", "growth", 50.6],
  ["Cc1cc2c(cc1C)N(C(=O)CCl)CCN2C(=O)CCl", "growth", -23]
]}
